Data origin, for the record: paper PMC10232738

Items are presented alongside their recorded pIC50.
# TESTED SYSTEM: α-glucosidase
# RUN DESCRIPTION: α-glucosidase inhibitory activity assay (p-NPG substrate)
# TEST PARAMETERS: pH 6.9, 37°C, mean ± SD (n = 3)
// pIC50 is dimensionless: -log10 of concentration (M)

Query: Would you kindly share the measured pIC50 for COc1cc(-c2[o+]c3cc(O)cc(O)c3cc2O[C@@H]2O[C@H](CO)[C@@H](O)[C@H](O)[C@H]2O)cc(O)c1O [BB4, petunidin-3-O-glucoside] ?
Reply: 3.66

Query: # get_value(readout='pIC50', item= OC[C@H]1O[C@@H](Oc2cc3c(O)cc(O)cc3[o+]c2-c2cc(O)c(O)c(O)c2)[C@H](O)[C@@H](O)[C@@H]1O [BB2, delphinidin-3-O-glucoside] )
Reply: 3.62

Query: Report pIC50 for OCC1OC(Oc2cc3c(O)cc(O)cc3[o+]c2-c2cc(O)c(O)c(O)c2)C(O)C(O)C1O (centres unmarked) [BB1, delphinidin-3-O-galactoside] please.
Reply: 4.17

Query: Endpoint output: pIC50 of COc1cc(-c2[o+]c3cc(O)cc(O)c3cc2OC2OC(CO)C(O)C(O)C2O)cc(OC)c1O (centres unmarked) [BB5, malvidin-3-O-galactoside] . Value?
Reply: 3.73

Query: Recorded pIC50 of COc1cc(-c2[o+]c3cc(O)cc(O)c3cc2OC2OC(CO)C(O)C(O)C2O)cc(O)c1O (centres unmarked) [BB3, petunidin-3-O-galactoside] , please.
Reply: 4.16

* * *

# RUN DESCRIPTION: DPPH radical scavenging assay
# TEST PARAMETERS: 30 min, 517 nm, mean ± SD (n = 3)
ASSAY METRIC: EC50 (µM)
Number only, in µM; omit the unit.

Worked cases, answers included:
>  <MOLECULE>
COc1cc(-c2[o+]c3cc(O)cc(O)c3cc2OC2OC(CO)C(O)C(O)C2O)cc(O)c1O (stereo not drawn) [BB3, petunidin-3-O-galactoside]

>  <ASSAY METRIC>
EC50

>  <UNITS OF MEASURE>
µM

>  <VALUE OBSERVED>
63.2

$$$$
>  <MOLECULE>
OC[C@H]1O[C@@H](Oc2cc3c(O)cc(O)cc3[o+]c2-c2cc(O)c(O)c(O)c2)[C@H](O)[C@@H](O)[C@@H]1O [BB2, delphinidin-3-O-glucoside]

>  <ASSAY METRIC>
EC50

>  <UNITS OF MEASURE>
µM

>  <VALUE OBSERVED>
61.4

$$$$

# ---- query molecule ----
Query: Given OCC1OC(Oc2cc3c(O)cc(O)cc3[o+]c2-c2cc(O)c(O)c(O)c2)C(O)C(O)C1O (stereo not drawn) [BB1, delphinidin-3-O-galactoside] , state its recorded EC50.
Reply: 39.9

* * *

Listed molecules paired with reported pEC50
# RUN DESCRIPTION: DPPH radical scavenging assay
# TEST PARAMETERS: 30 min, 517 nm, mean ± SD (n = 3)
Quick note: pEC50 means taking -log10 of the concentration in moles per liter.

For orientation, consider the following solved cases.
>  <MOLECULE>
O=C1O[C@H]([C@@H](O)CO)C(O)=C1O [ascorbic acid, reference compound]

>  <pEC50>
3.95

$$$$
>  <MOLECULE>
COc1cc(-c2[o+]c3cc(O)cc(O)c3cc2O[C@@H]2O[C@H](CO)[C@@H](O)[C@H](O)[C@H]2O)cc(O)c1O [BB4, petunidin-3-O-glucoside]

>  <pEC50>
4.21

$$$$

Turning to the following molecule.
Query: // query pEC50 value for entry COc1cc(-c2[o+]c3cc(O)cc(O)c3cc2OC2OC(CO)C(O)C(O)C2O)cc(OC)c1O (stereo not drawn) [BB5, malvidin-3-O-galactoside]
Reply: 4.41
